Where do the numbers come from? From PubChem BioAssay AID248.

# System: L1210 leukemia ip in BDF1 mice, survival T/C
# protocol notes: NCI In Vivo Anticancer Drug Screen. Data for tumor model L1210 Leukemia (intraperitoneal) in B6D2F1 (BDF1) mice
# measurement setup: endpoint: mean survival time; dose: 400.0 mg/kg/injection; schedule: Q04DX003 (ip); vehicle: Klucel (hydroxypropylcellulose) (HPC); higher = longer survival
Inconclusive results and toxic doses are left out.
property label: T/C

Entry under test: CN(C)NC(=O)/C=C/c1ccccc1 . Its T/C was 87 % of control

Entry under test: O=[N+]([O-])c1cc(Br)cc2c1nc(NCCCO)c1ccccc12 . Its T/C was 109 % of control

Entry under test: Nc1nc(N)nc(CCP(CCc2nc(N)nc(N)n2)CCc2nc(N)nc(N)n2)n1 . Its T/C was 101 % of control

Entry under test: O=C(Nc1ccccc1C(F)(F)F)C(c1ccccc1)c1ccccc1 . Its T/C was 95 % of control

Entry under test: Nc1c(Cl)ncnc1Nc1cccc(C(F)(F)F)c1 . Its T/C was 104 % of control

Entry under test: CN(C)P(N)(N)=O . Its T/C was 100 % of control

Entry under test: CCOc1ccccc1NC(c1ccc(OC)cc1)P(=O)(c1ccccc1)c1ccccc1 (configuration not stated) . Its T/C was 92 % of control

Entry under test: O=S1ON=C(c2ccccc2)N1c1ccccc1Cl (configuration not stated) . Its T/C was 88 % of control

Entry under test: Nc1cccc2c1C(=O)c1cccc(N)c1C2=O . Its T/C was 96 % of control

Entry under test: O=C1NC(=O)c2cc([N+](=O)[O-])cc3cccc1c23 . Its T/C was 86 % of control

Entry under test: CCOC(=O)C(C)Oc1ccc([N+](=O)[O-])cc1[N+](=O)[O-] (configuration not stated) . Its T/C was 98 % of control

Entry under test: O=c1oc2cc(O)ccc2c2ccccc12 . Its T/C was 102 % of control
